measurementTarget: endogenous cellular BACE2 (Rattus norvegicus)
Construct: endogenous cellular BACE2 in the Ins1e rat cell line; endogenous in cells
Sequence (Q6IE75 63-514): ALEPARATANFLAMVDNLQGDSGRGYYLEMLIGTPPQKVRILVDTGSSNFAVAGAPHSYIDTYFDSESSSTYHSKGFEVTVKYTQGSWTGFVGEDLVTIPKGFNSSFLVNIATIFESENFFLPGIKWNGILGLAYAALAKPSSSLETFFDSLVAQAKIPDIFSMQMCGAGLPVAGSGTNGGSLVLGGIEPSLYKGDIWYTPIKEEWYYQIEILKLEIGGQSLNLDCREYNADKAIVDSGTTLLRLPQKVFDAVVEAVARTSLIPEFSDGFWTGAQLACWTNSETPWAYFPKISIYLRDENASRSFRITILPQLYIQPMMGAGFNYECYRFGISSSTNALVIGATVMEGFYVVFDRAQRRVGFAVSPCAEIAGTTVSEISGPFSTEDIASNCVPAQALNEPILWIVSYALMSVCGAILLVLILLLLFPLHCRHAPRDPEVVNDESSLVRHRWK
assayName: Assay for BACE inhibition by measuring cellular TMEM27 cleavage
testSettings: INS-TMEM27 (INS1e-derived) cells, shed human TMEM27 in supernatant by ELISA
Counter-ions that a name gives are not always drawn.

compound	measureUnit	IC50
Cc1c[nH]nc1C(=O)Nc1ccc(F)c([C@@]2(C)N=C(N)COCC2(F)F)c1	nM	444
CC[C@]1(c2cc(NC(=O)c3ccc(Cl)cn3)ccc2F)N=C(N)COCC1(F)F	nM	36.2
COC(C)C(=O)Nc1ccc(F)c([C@@]2(C)N=C(N)COCC2(F)F)c1 (stereo partly drawn) [Example 55, formate]	nM	190
